Test system: thyroid hormone receptor (rat, GH3 cells)
test.summary: qHTS assay to identify small molecule agonists of the thyroid receptor (TR) signaling pathway (AID 743066)
condition.label: GH3.TRE-Luc cells, TR agonist luciferase, 24 h; series mostly up to 83.9 µM
Inconclusive results are not listed. Active and inactive are the calls of the source. The call rests on the fitted dose curve.
Outcomes you can answer with include only these: active, inactive

compound: CC(C=O)Cc1ccc2c(c1)OCO2 (centres undefined)
label: inactive
--
compound: Cc1ncsc1CCCl
label: inactive
--
compound: O=[N+]([O-])c1cccc2c([N+](=O)[O-])cccc12
label: inactive

Then this compound:
stdin: Recorded test outcome, item O=C1CN=C(c2ccccc2)c2cc([N+](=O)[O-])ccc2N1
stdout: inactive

* * *

tested.target: Nuclear receptor subfamily 1 group I member 3 (Homo sapiens) (UniProt Q14994)
Sequence (Q14994 whole entry, looked up): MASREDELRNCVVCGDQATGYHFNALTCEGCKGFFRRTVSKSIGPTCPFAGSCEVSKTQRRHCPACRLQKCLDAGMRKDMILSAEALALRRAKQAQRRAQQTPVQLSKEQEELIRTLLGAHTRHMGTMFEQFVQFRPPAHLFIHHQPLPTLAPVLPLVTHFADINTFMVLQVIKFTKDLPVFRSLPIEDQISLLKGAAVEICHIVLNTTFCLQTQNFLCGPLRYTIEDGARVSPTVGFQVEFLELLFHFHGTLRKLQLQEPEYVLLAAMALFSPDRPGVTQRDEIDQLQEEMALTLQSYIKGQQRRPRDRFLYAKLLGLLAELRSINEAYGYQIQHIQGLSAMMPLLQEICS
test.summary: qHTS assay to identify small molecule agonists of the constitutive androstane receptor (CAR) signaling pathway (AID 1224839);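 further: HepG2 cells stably carrying human CAR and a CYP2B6 luciferase reporter; nearly all actives have a fitted effect of over 15% in size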
condition.label: HepG2 hCAR CYP2B6-luciferase, agonist mode, 24 h; series mostly up to 92.4 µM
Results filed as inconclusive are left out. Activity calls are given as the source filed them. Calls follow the shape of the dose curve; as a rule, active = well fitted activation curve with a large enough effect in the repeat runs; inconclusive = weak or mixed curves; inactive = no such curve, though single readings can be large or run the other way.
Outcomes you can answer with include only these: 1 (yes) for active, 0 (no) for inactive

compound: NC(=S)C(N)=S
label: 0 (no)

stdin: Recorded test outcome, item Fc1ccc(C2(Cn3cncn3)OC2c2ccccc2Cl)cc1 (centres undefined)
stdout: 0 (no)

stdin: Input CN/C(=N\[N+](=O)[O-])NCC1CCOC1 (centres undefined)
stdout: 0 (no)

stdin: Input O=[N+]([O-])c1cc(Cl)c(Cl)c(Cl)c1
stdout: 0 (no)

* * *

test.summary: A CellTox Green Cytotoxicity Assay to monitor cytotoxicity in HEK293 cells - 32 hour (AID 1224881); further: nearly all actives have a fitted effect of over 40% in size
condition.label: CellTox Green fluorescence; series mostly up to 76.8 µM
Inconclusive results are not listed. Calls of active or inactive are those of the source. Calls come from the whole dose curve; as a rule, active = well fitted activation curve with a large enough effect in the repeat runs; inconclusive = weak or mixed curves; inactive = flat fitted curve, though single readings scatter.
quantity: Potency

# count of solved cases: 6
molecule: O=C(O)c1cccc(Cl)c1
Potency: inactive

molecule: CCC#N
Potency: inactive

molecule: CCOP(=S)(OCC)SCSP(=S)(OCC)OCC
Potency: inactive

molecule: COC(=O)C(C)Oc1ccc(Oc2ccc(Cl)cc2Cl)cc1 (stereo not drawn)
Potency: inactive

molecule: N#CC(Cl)(Cl)Cl
Potency: inactive

molecule: O=C1CN2CCOC2(c2ccccc2Cl)c2cc(Cl)ccc2N1 (stereo not drawn)
Potency: inactive

stdin: Fill in the blank: the reported Potency of CC(C)CC#N is ____.
stdout: inactive

stdin: Input [O]=[Cd]
stdout: inactive

stdin: Input CCN(CC)c1nc(C)cc(OP(=S)(OC)OC)n1
stdout: inactive

stdin: Input COc1cccc(C(=O)NN(C(=O)c2cc(C)cc(C)c2)C(C)(C)C)c1C
stdout: inactive

stdin: Input C[N+](=O)[O-]
stdout: inactive

* * *

tested.target: Luciferin 4-monooxygenase (Photinus pyralis) (UniProt P08659)
Sequence (P08659 whole entry, looked up): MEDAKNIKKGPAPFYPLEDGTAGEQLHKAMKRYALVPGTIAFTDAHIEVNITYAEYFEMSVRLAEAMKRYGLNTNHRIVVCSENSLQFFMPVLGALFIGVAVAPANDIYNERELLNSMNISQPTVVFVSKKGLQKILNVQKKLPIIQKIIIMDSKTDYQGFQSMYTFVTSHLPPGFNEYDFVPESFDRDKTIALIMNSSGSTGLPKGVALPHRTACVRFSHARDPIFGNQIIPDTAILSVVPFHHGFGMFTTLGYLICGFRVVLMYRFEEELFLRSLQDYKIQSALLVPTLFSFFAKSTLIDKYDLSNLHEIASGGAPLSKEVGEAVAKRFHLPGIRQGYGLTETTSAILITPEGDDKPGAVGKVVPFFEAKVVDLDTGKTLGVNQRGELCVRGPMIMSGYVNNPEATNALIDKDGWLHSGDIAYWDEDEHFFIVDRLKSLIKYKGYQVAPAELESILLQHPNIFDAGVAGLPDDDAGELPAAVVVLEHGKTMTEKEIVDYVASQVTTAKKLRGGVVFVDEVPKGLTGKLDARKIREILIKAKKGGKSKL
test.summary: qHTS assay to identify small molecule inhibitors of firefly luciferase (AID 1224835); further: nearly all actives have a fitted effect of over 25% in size
condition.label: purified P. pyralis luciferase, luminescence inhibition; series mostly up to 115 µM
Excerpt: U.S. Tox21 Program National Center for Advancing Translational Sciences [NCATS] NIH Chemical Genomics Center [NCGC] U.S. Environmental Protection Agency [EPA] National Institutes of Environmental Health Sciences [NIEHS] National Toxicology Program [NTP] U.S. Food and Drug Administration [FDA] Tox21 Assay Overview: Firefly (Photinus pyralis) luciferase is one of the most commonly used transcriptional reporters. […]
Records with an inconclusive call do not appear. Activity calls are given as the source filed them. Calls follow the shape of the dose curve; as a rule, active = well fitted inhibition curve with a large enough effect in the repeat runs; inconclusive = weak or mixed curves; inactive = flat fitted curve, though single readings scatter.
quantity: outcome

# count of solved cases: 4
compound: O=[N+]([O-])c1cccc(O)c1
tested.target: Luciferin 4-monooxygenase (Photinus pyralis) (UniProt P08659)
quantity: outcome
result: inactive

compound: ClC(Cl)(Cl)C(Cl)(Cl)Cl
tested.target: Luciferin 4-monooxygenase (Photinus pyralis) (UniProt P08659)
quantity: outcome
result: inactive

compound: CC(Cl)(Cl)[N+](=O)[O-]
tested.target: Luciferin 4-monooxygenase (Photinus pyralis) (UniProt P08659)
quantity: outcome
result: inactive

compound: CC(C1CC1)C(O)(Cn1cncn1)c1ccc(Cl)cc1 (configuration not stated)
tested.target: Luciferin 4-monooxygenase (Photinus pyralis) (UniProt P08659)
quantity: outcome
result: inactive

stdin: Fill in the blank: the reported outcome of CCOC(=O)CP(=O)(OCC)OCC is ____.
stdout: inactive

stdin: Input CCC(=O)C(CCN(C)C)(c1ccccc1)c1ccccc1
stdout: inactive

stdin: Input CCN(CC)c1nc(C)cc(OP(=S)(OC)OC)n1
stdout: inactive

stdin: Input CC(C)(C)OC(=O)c1ncn2c1[C@@H]1CCCN1C(=O)c1c(Br)cccc1-2
stdout: inactive

stdin: Input CC1=NNC(=O)N(/N=C/c2cccnc2)C1
stdout: inactive

stdin: Input O=C(N[C@H]1CN2CCC1CC2)c1cc2ccoc2cn1
stdout: inactive

stdin: Input CCC(C)(C)c1cc(-n2nc3ccccc3n2)c(O)c(C(C)(C)CC)c1
stdout: inactive

stdin: Input CCCCc1ccc(O)cc1
stdout: inactive

stdin: Input CN(C)CCc1ccc(O)cc1
stdout: inactive

stdin: Input C=C(C)CN(CC)c1c([N+](=O)[O-])cc(C(F)(F)F)cc1[N+](=O)[O-]
stdout: inactive

* * *

test.summary: qHTS assay to identify small molecule antagonists of the estrogen related receptor (ERR) signaling pathway from Tox21 library - cell viability counter screen (AID 1224834); further: nearly all actives have a fitted effect of over 30% in size
condition.label: ERR reporter cells viability, CellTiter-Fluor, 17.5 h; series mostly up to 92.4 µM
Records with an inconclusive call do not appear. Calls of active or inactive are those of the source. The call rests on the fitted dose curve; in most records, active means well fitted cell-killing curve with a large enough effect in the repeat runs; inconclusive means weak or mixed curves; inactive means flat fitted curve, though single readings scatter.
Outcomes you can answer with include only these: TRUE = active, FALSE = inactive

Below, 5 compounds whose answers are already recorded.
compound: O=C(O)c1ccc2[nH]cc(CCCCN3CC=C(c4ccccc4)CC3)c2c1
label: FALSE
--
compound: CC(C)(C)C(=O)C(Oc1ccc(Cl)cc1)n1cncn1 (centres undefined)
label: FALSE
--
compound: CCCCOC(=O)c1ccccc1C(=O)O
label: FALSE
--
compound: Nc1cc2c3c(c1)C(c1ccccc1)=N[C@@H](NC(=O)c1cccnc1)C(=O)N3CC2
label: FALSE
--
compound: ClCC(Cl)(Cl)Cl
label: FALSE

stdin: Recorded test outcome, item O=C1CN=C(c2ccccc2)c2cc([N+](=O)[O-])ccc2N1
stdout: FALSE

stdin: Input Clc1cccc(N2CCNCC2)c1
stdout: FALSE

stdin: Input C=CCC1=C(C)[C@@H](OC(=O)[C@@H]2[C@@H](C=C(C)C)C2(C)C)CC1=O
stdout: TRUE

stdin: Input C[C@]12CC[C@H]3[C@@H](CCC4=CC(=O)CC[C@@]43C)[C@@H]1CC[C@@H]2C(=O)O
stdout: FALSE

stdin: Input CCOP(=S)(Oc1cnc(C(C)(C)C)nc1)OC(C)C (centres undefined)
stdout: FALSE

* * *

test.summary: qHTS assay to identify small molecule antagonists of the estrogen receptor alpha (ER-alpha) signaling pathway - cell viability counter screen (AID 743074);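 further: HEK293 cells carrying ER-alpha-UAS-bla reporter stimulated with 17beta-estradiol; nearly all actives have a fitted effect of over 45% in size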
condition.label: ERalpha-bla HEK293 viability, CellTiter-Glo luminescence, 18 h; series mostly up to 69.4 µM
Inconclusive results are not listed. Activity calls are given as the source filed them. Calls follow the shape of the full dose curve.
quantity: outcome

# count of solved cases: 4
molecule: COc1cc(OC)nc(NC(=O)NS(=O)(=O)c2ncccc2C(=O)N(C)C)n1
outcome: inactive

molecule: CN(C)CCc1ccc(O)cc1
outcome: inactive

molecule: CN/C(=N\[N+](=O)[O-])NCC1CCOC1 (stereo not given)
outcome: inactive

molecule: CCOP(=O)(N=C1SCCS1)OCC
outcome: inactive

stdin: Fill in the blank: the reported outcome of CCCCOP(=O)(O)OCCCC is ____.
stdout: inactive

stdin: Input Cc1cnc[nH]1
stdout: inactive

stdin: Input COc1cc(C[C@@H](C)N)c(OC)cc1C
stdout: inactive

stdin: Input CCN(CC)C(C)C(=O)c1ccccc1 (stereo not given)
stdout: inactive

stdin: Input Cc1ncsc1CCCl
stdout: inactive

stdin: Input COC(=O)c1c(C(F)F)nc(C(F)(F)F)c(C2=NCCS2)c1CC(C)C
stdout: inactive

stdin: Input c1cc2c(c(N3CCNCC3)c1)OCCO2
stdout: inactive

stdin: Input CCOP(=S)(OCC)SCSP(=S)(OCC)OCC
stdout: inactive

stdin: Input Clc1cccc(N2CCNCC2)c1
stdout: inactive

stdin: Input N#CCNCC#N
stdout: inactive

stdin: Input CC(C)CC#N
stdout: inactive

* * *

test.summary: qHTS assay to identify small molecule that activate the aryl hydrocarbon receptor (AhR) signaling pathway - cell viability counter screen (AID 743086);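 further: HepG2 liver cells carrying the AhR DRE luciferase reporter; nearly all actives have a fitted effect of over 45% in size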
condition.label: HepG2-AhR-luc viability, CellTiter-Fluor, 24 h; series mostly up to 70.3 µM
Records with an inconclusive call do not appear. Activity calls are given as the source filed them. Calls follow the shape of the dose curve; as a rule, active = well fitted cell-killing curve with a large enough effect in the repeat runs; inconclusive = weak or mixed curves, or effect the other way; inactive = flat fitted curve, though single readings scatter.
quantity: outcome

item.smiles: CCOc1nc(C(Cl)(Cl)Cl)ns1
quantity: outcome
result: inactive
--
item.smiles: ClCC(Cl)(Cl)Cl
quantity: outcome
result: inactive
--
item.smiles: Oc1c(Cl)cccc1Cl
quantity: outcome
result: inactive
